Please go through the items and note down their Ki.
- study system: rat NTPDase3 (Rattus norvegicus)
- Sequence (A6I415 1-529): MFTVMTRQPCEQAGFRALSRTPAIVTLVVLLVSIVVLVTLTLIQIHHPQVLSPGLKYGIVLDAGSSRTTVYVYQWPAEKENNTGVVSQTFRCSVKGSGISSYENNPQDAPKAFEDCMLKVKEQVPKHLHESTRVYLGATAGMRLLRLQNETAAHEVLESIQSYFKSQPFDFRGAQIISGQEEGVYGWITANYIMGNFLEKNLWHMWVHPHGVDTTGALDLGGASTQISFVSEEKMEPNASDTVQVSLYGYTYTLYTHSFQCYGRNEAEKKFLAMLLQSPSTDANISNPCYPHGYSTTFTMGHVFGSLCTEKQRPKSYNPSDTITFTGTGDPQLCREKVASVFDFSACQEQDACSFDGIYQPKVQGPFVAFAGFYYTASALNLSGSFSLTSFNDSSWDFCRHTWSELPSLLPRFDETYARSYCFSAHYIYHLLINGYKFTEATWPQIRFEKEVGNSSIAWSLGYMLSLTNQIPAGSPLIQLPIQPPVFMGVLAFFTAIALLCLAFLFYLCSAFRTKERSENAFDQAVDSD
- assay explanation: Rat NTPDase3 inhibition, in-capillary electrophoresis method (standard compounds)
- Format: biochemical
- test settings: read-out: NTPDase3 Ki ± SEM
The response must be a number in µM with no trailing unit.

Tell me the measured Ki of Cc1ccc(C(=O)Nc2ccc(S(=O)(=O)O)c3cc(S(=O)(=O)O)cc(S(=O)(=O)O)c23)cc1NC(=O)c1cccc(NC(=O)Nc2cccc(C(=O)Nc3cc(C(=O)Nc4ccc(S(=O)(=O)O)c5cc(S(=O)(=O)O)cc(S(=O)(=O)O)c45)ccc3C)c2)c1 [Suramin, suramin] , please.
12.7

Proceed to CCN(CC)c1ncnc2c1ncn2C1OC(COP(=O)(O)OP(=O)(O)C(Br)(Br)P(=O)(O)O)C(O)C1O (stereo not drawn) [ARL67156, N^6-Diethyl-β,γ-dibromomethylene-ATP]
112

Proceed to Cc1nc(N=Nc2ccc(S(=O)(=O)O)cc2S(=O)(=O)O)c(COP(=O)(O)O)c(C=O)c1O [PPADS]
3

---

Please go through the items and note down their Ki.
- study system: human NTPDase8 (Homo sapiens)
- Sequence (Q5MY95 1-495): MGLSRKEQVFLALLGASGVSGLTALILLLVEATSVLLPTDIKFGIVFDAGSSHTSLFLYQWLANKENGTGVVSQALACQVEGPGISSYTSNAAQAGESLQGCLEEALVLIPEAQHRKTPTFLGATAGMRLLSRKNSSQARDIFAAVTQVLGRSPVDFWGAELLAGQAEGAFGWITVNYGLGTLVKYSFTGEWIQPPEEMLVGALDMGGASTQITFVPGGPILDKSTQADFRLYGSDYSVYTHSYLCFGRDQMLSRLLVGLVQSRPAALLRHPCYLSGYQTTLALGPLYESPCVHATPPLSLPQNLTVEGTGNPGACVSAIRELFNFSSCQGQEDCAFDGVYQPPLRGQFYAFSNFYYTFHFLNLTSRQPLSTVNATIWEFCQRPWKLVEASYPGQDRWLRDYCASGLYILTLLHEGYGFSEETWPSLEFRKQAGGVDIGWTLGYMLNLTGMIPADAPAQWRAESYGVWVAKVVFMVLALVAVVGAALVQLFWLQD
- assay explanation: NTPDase inhibition assay by capillary electrophoresis (CE), NTPDase8
- Format: biochemical
- test settings: read-out: NTPDase8 Ki [μM] ± SEM

Tell me the measured Ki of CCOP(=O)(Cc1ccc(NC(=O)CNC(=O)[C@H]2O[C@@H](n3ccc(=O)[nH]c3=O)C(O)C2O)cc1)OCC (stereo in doubt) [Compound 2] , please.
> 100 µM

Proceed to CCOP(=O)(Cc1ccc(NC(=O)CNC(=O)[C@H]2O[C@@H](n3cnc4c(N)ncnc43)C(O)C2O)cc1)OCC (stereo in doubt) [CC1]
> 100 µM

Proceed to CCOP(=O)(Cc1ccc(NC(=O)CCNC(=O)[C@H]2O[C@@H](n3cnc4c(N)ncnc43)C(O)C2O)cc1)OCC (stereo in doubt) [CC2]
255 µM
